Task for the reader: assign each of the following molecules its reported concentration at 7 h.
Assay: Compound was tested for plasma concentration in CM-monkeys 7 hours after oral administration (50 mg/kg)
Type: ADME, organism-based, Macaca fascicularis
Details: cynomolgus monkey
One number for each entry, in nM.

Parameter requested: concentration at 7 h. Apply to each item below.
1. C#CC[C@@H](C(=O)N[C@H](/C=C/C(=O)OCC)C[C@@H]1CCNC1=O)n1cccc(NC(=O)c2cc(C)on2)c1=O [IMOCITRELVIR]
2. Cc1cc(C(=O)Nc2cccn([C@@H](Cc3ccc(F)c(F)c3)C(=O)N[C@H](/C=C/C(=O)OC(C)C)C[C@@H]3CCNC3=O)c2=O)no1
3. C#CC[C@@H](C(=O)N[C@H](/C=C/C(=O)OCc1ccccc1)C[C@@H]1CCNC1=O)n1cccc(NC(=O)c2cc(C)on2)c1=O
4. CCOC(=O)/C=C/[C@H](C[C@@H]1CCNC1=O)NC(=O)[C@H](CC)n1cccc(NC(=O)c2cc(C)on2)c1=O

1. 57
2. 12
3. 3
4. 896

----------
Please respond with reported concentration at 7 h for every item in the list.
Assay: Compound was tested for plasma concentration in dogs 7 hours after oral administration (30 mg/kg) in experiment 1
Assay type: ADME, organism-based, Canis lupus familiaris
Conditions: dog
Don't forget the unit after the value.

For CCOC(=O)/C=C/[C@H](C[C@@H]1CCNC1=O)NC(=O)[C@H](CC)n1cccc(NC(=O)c2cc(C)on2)c1=O , write its concentration at 7 h.
682 nM

We next turn to a different compound, shown below.
Could you please provide reported concentration at 7 h for Cc1cc(C(=O)Nc2cccn([C@@H](Cc3ccc(F)c(F)c3)C(=O)N[C@H](/C=C/C(=O)OC(C)C)C[C@@H]3CCNC3=O)c2=O)no1 ? Thanks!
815 nM

----------
Target protein (sequence): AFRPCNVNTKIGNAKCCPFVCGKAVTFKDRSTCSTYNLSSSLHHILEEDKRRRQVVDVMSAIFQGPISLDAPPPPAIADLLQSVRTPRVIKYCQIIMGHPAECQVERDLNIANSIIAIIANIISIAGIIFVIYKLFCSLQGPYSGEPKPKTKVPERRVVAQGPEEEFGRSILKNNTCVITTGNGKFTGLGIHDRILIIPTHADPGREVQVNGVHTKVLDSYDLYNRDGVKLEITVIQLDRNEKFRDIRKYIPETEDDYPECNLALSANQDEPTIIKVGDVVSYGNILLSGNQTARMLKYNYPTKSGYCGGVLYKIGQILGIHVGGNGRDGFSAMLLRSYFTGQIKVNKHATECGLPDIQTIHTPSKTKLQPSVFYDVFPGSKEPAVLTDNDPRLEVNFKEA
ASSAY ENDPOINT: K obs / 1 (M⁻¹ s⁻¹)
Give bare numbers, in M⁻¹ s⁻¹.

Give recorded K obs / 1. CC[C@@H](C(=O)N[C@H](/C=C/C(=O)OCc1ccccc1)C[C@@H]1CCNC1=O)n1cccc(NC(=O)c2cc(C)on2)c1=O
210000

Provide K obs / 1 values for the following items, in order.
1. CC[C@@H](C(=O)N[C@H](/C=C/C(=O)OCC(C)(C)C)C[C@@H]1CCNC1=O)n1cccc(NC(=O)c2cc(C)on2)c1=O
2. C#CC[C@@H](C(=O)N[C@H](/C=C/C(=O)OC1CCCCCC1)C[C@@H]1CCNC1=O)n1cccc(NC(=O)c2cc(C)on2)c1=O
3. CC[C@@H](C(=O)N[C@H](/C=C/C(=O)OC(C)(C)C)C[C@@H]1CCNC1=O)n1cccc(NC(=O)c2cc(C)on2)c1=O
4. C#CC[C@@H](C(=O)N[C@H](/C=C/C(=O)OC1CCCC1)C[C@@H]1CCNC1=O)n1cccc(NC(=O)c2cc(C)on2)c1=O
5. CC[C@@H](C(=O)N[C@H](/C=C/C(=O)OC(C)C)C[C@@H]1CCNC1=O)n1cccc(NC(=O)c2cc(C)on2)c1=O
6. C#CC[C@@H](C(=O)N[C@H](/C=C/C(=O)OC(C)C)C[C@@H]1CCNC1=O)n1cccc(NC(=O)c2cc(C)on2)c1=O
7. CCOC(=O)/C=C/[C@H](C[C@@H]1CCNC1=O)NC(=O)[C@H](CC)n1cccc(NC(=O)c2cc(C)on2)c1=O

1: 38200; 2: 47000; 3: 45100; 4: 186000; 5: 36000; 6: 100000; 7: 170000
